molecular target: UniProt:P00533
IC50: recorded values

{"smiles.notation": "NC(=O)CNCc1ccc2ncnc(Nc3ccc4c(cnn4Cc4ccccc4)c3)c2c1", "IC50": "< 100 nM"}
{"smiles.notation": "CN(CC(N)=O)Cc1ccc2ncnc(Nc3ccc4c(cnn4Cc4ccccc4)c3)c2c1", "IC50": "< 100 nM"}
{"smiles.notation": "O=C(O)CNCc1ccc2ncnc(Nc3ccc4c(cnn4Cc4ccccc4)c3)c2c1", "IC50": "< 100 nM"}

----------
target: EGFR (human)
measured.endpoint: IC50

{"smiles.notation": "CN(CCCOc1ccc2ncnc(Nc3ccc(OCc4ccccc4)cc3)c2c1)CCS(C)(=O)=O", "assay.target": "EGFR (human)", "reported.value": "< 5 µM"}
